test system: MOLT-4 leukemia; assay: NCI tumour cell line growth inhibition, 48 h; in the data active = GI50 below about 0.43 µM; inactive = the rest
Outcome field: choose from 1 (active), 0 (inactive)

CCc1nc2cc(/C=C/C(=O)NO)c(F)cc2c(=O)n1CCc1ccccc1 ... 0
COc1cccc2c1C(=O)c1c(O)c3c(c(O)c1C2=O)C[C@@](O)(C(=O)COC(=O)c1cccnc1)C[C@@H]3OC1CC(N)C(O)C(C)O1 (stereo not given in full) ... 1
COc1cc2c(cc1O)CCN[C@@]21CS[C@H]2c3c(OC(C)=O)c(C)c4c(c3C(COC1=O)N1C2C2c3c(cc(C)c(OC)c3O)CC([C@@H]1O)N2C)OCO4 (stereo not given in full) ... 1
CC(=O)[CH-]C(=O)c1ccccc1.CC(=O)[CH-]C(=O)c1ccccc1.[O-]c1ccc(O)cc1.[O-]c1ccc(O)cc1.[Ti+4] ... 0
Cc1cc2cc(Oc3ccnc(Nc4cccc(CS(=O)(=O)NCCN(C)C)c4)n3)ccc2[nH]1 ... 0

Query: Hi, sorry to bother you, what did the test record for N#C/C(=C/c1cccs1)c1cccs1 ?
Result: 0

Query: # iterate: CCOc1ccccc1N=C(NC(=O)CC)SC
Result: 0
